Can you tell me cytotoxicity at 70.5 h for the items I'm about to list?
Test: Human HepG2 cell viability assay in 384 well format
Type: toxicity, cell-based
Design: dose 125 nL, time 70.5 hour; concentration not given beside the values
Conditions: HepG2 cells, read-out: Inhibition
Numbers only, in %.

See these solved cases before continuing.
compound=CCn1cnnc1C1CCN(C(=O)c2cc(C)n(CC)c2C)CC1 readout="cytotoxicity at 70.5 h" measured_result=-5.03
compound=COC[C@@]12CC[C@@H](N3CCOCC3)C[C@H]1CCN(c1ncccc1C)C2 readout="cytotoxicity at 70.5 h" measured_result=-0.155
compound=CCn1cc(NC(=O)C2CCN(Cc3nc(C(C)C)no3)CC2)cn1 readout="cytotoxicity at 70.5 h" measured_result=-6.8
compound="Cc1ccc(N2CCCC3(COCCN(c4ncccn4)C3)C2)nn1 (centres undefined)" readout="cytotoxicity at 70.5 h" measured_result=4.86
compound=Cc1nnc(NCCC(=O)N(C)Cc2ccccc2)c(C#N)c1C readout="cytotoxicity at 70.5 h" measured_result=3.39
compound=Cc1nc(CN2C(=O)CC[C@H]3[C@@H]2CCN3C(=O)c2ccsc2)cs1 readout="cytotoxicity at 70.5 h" measured_result=-11.6
compound="Cc1ccc(NC(=O)N2CCCC(O)(CO)CC2)cc1Cl (centres undefined)" readout="cytotoxicity at 70.5 h" measured_result=-4.85
compound="Cc1cccc(CC(=O)N2CCCC(N(C)CCCN(C)C)C2)c1 (centres undefined)" readout="cytotoxicity at 70.5 h" measured_result=-4.84

Provide cytotoxicity at 70.5 h values for the following items, in order.
1. Cc1cccn2cc(CN3CCCC(c4noc(C5CC5)n4)C3)nc12 (centres undefined)
2. CC1CCC(O)(Cn2ncnc2-c2cccc(C#N)c2)CC1 (centres undefined)
3. Cc1noc2nc(C3CCN(Cc4ccccn4)CC3)cc(C(F)F)c12
4. O=C(CC1Cn2ncnc2NC1=O)Nc1ccccc1 (centres undefined)
5. CCCNC(=O)c1cc2c(s1)CCN2C(=O)c1ccccc1

[5.44, -5.94, -2.48, -8.16, 14.2]

----------
Can you tell me cytotoxicity at 70.5 h for the items I'm about to list?
Assay: Human HepG2 cell viability assay in 384 well format
Assay type: toxicity, cell-based
Design: dose 125 nL, time 70.5 hour; concentration not given beside the values
Conditions: HepG2 cells, read-out: Inhibition
Give bare numbers, in %.

See these solved cases before continuing.
molecule="Cc1nnc(N2CCOC(C)(C(=O)N(C)C)C2)c2ccccc12 (stereo not drawn)" measured_result=-8.96
molecule=CCN1CCC2(CC1)CN(C(C)=O)c1ccc(C)cc12 measured_result=-7.76
molecule=O=C(CCN1C[C@H]2CC[C@@H]1CN(c1ncccn1)C2)NCc1ccco1 measured_result=27.5
molecule="CS(=O)(=O)N1CCCCC12CCN(C(=O)c1ccccc1)C2 (stereo not drawn)" measured_result=-8.78
molecule=Cc1nc(CN2CCN(Cc3nccn3C)CC2)no1 measured_result=3.86

Provide cytotoxicity at 70.5 h values for the following items, in order.
1. CCC1CCCCN1Cc1nc2c(cnn2C)c(=O)[nH]1 (stereo not drawn)
2. CCN(CC)CCNCC1CCOC(C)(C)C1 (stereo not drawn)
3. CNc1nc(C2CCCN2C(C)=O)nc2c1CN(C1CCCC1)CC2 (stereo not drawn)
4. CSCC[C@H](N)c1nnc(SCC(=O)Nc2ccc(Br)cc2)o1
5. CCc1noc(C(C)N2CCN(Cc3noc(C4CC4)n3)CC2)n1 (stereo not drawn)
6. COc1ccc(-c2noc(CN3CCc4cncnc4C3)n2)cc1

-0.935
-5.74
-4.73
-18.7
-8.62
-8.79

Provide cytotoxicity at 70.5 h values for the following items, in order.
1. CCc1ncncc1C(=O)N1CCCC(n2nc(C)nc2C)C1 (stereo not drawn)
2. CN1CCN(Cc2cnc3n2CCN(C(=O)c2ccncc2)C3)CC1

1: -1.23; 2: -10.3

All values here come from ChEMBL document CHEMBL3507680.
